Reported pIC50 values for a set of compounds
SYSTEM UNDER TEST: human ACC2 (Homo sapiens)
Construct: made in house; host or cells: insect cells (baculoviral expression system)
Sequence (O00763 129-2458 limits assumed): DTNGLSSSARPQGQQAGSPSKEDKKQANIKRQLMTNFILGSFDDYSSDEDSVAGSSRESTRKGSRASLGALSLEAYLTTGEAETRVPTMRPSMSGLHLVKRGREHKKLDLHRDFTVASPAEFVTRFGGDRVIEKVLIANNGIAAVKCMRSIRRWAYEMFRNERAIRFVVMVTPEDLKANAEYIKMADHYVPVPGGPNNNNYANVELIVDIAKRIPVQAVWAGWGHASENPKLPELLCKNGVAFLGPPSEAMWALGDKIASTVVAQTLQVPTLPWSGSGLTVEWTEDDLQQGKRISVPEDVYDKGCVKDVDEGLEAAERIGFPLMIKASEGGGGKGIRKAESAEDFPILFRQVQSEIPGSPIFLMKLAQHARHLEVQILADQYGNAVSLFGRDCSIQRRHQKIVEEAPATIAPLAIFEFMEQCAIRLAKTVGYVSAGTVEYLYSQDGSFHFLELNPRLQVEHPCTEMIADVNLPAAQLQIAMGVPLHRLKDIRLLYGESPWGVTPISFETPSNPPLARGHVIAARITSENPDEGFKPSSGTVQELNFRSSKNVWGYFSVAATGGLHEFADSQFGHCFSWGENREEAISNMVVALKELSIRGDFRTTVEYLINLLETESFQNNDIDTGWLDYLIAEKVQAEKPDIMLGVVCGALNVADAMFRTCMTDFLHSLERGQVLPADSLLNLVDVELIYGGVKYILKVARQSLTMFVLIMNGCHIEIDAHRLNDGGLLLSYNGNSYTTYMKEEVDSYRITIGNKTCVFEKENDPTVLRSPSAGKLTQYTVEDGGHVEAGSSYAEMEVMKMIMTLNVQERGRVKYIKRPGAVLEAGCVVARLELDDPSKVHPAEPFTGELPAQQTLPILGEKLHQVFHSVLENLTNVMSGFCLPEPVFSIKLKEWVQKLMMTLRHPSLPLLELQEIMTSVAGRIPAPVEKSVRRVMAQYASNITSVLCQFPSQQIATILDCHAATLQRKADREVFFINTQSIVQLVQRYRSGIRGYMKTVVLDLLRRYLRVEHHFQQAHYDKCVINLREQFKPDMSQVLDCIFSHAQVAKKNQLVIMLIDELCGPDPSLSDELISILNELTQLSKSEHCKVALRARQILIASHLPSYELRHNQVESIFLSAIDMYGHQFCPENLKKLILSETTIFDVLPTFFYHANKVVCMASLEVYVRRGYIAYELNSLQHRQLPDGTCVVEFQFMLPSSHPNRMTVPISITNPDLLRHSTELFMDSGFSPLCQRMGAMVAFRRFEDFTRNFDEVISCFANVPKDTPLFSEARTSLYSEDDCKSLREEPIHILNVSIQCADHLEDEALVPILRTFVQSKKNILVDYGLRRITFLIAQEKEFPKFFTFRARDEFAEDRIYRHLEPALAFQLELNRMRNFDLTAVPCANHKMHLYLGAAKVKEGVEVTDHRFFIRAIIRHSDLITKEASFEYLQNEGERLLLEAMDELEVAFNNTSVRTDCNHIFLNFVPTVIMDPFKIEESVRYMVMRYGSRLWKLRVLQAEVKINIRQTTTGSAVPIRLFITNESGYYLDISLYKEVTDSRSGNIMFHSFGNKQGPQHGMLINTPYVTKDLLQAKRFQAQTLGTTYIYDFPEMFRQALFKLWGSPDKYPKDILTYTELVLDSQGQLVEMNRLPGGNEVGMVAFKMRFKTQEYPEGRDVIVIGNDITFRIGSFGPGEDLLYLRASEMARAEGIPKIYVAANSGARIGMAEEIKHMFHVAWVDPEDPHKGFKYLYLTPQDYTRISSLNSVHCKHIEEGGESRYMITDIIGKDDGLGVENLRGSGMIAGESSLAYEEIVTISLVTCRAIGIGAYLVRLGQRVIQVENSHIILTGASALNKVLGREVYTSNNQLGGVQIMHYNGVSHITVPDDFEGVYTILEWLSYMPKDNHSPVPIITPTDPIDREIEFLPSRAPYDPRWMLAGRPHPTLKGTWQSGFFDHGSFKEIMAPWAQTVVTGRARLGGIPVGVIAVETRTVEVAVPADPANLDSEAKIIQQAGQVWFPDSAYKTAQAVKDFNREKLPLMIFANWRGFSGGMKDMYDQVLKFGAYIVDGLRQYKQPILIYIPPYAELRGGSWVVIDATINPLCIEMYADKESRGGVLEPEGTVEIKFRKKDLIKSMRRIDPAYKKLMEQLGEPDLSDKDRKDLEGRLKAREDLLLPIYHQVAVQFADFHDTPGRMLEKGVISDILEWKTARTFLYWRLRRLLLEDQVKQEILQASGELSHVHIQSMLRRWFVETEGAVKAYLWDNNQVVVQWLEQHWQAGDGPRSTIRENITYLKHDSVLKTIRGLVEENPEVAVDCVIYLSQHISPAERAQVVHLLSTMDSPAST
ASSAY NOTES: ACC2 assay, spectrophotometric 384 well assay (NADH-linked, coupled lactate dehydrogenase/pyruvate kinase)
Assay type: biochemical
EXPERIMENTAL PARAMETERS: ACC2 assay; human ACC2 construct lacking 128 N-terminal amino acids; 25° C., 340 nm, 15 minutes; read-out: IC50
pIC50 field: float, defined as -log10 of concentration (mol/L).

CCOc1ccc(OC2CN(c3ccc([C@H](C)NC(=O)Cc4cc[nH]c4)cc3)C2)cc1: 5.83
CC(=O)N[C@@H](C)c1ccc(N2CC(Oc3ccc(OC4CCC4)cc3)C2)cc1: 7.40
CC(=O)N[C@@H](C)c1ccc(N2CC(Oc3ccccc3C)C2)cc1: 6.02

Value wanted: pIC50 (human ACC2 (Homo sapiens)) of entry CCOc1ccc(OC2CN(c3ccc([C@H](C)NC(=O)Nc4cc[nH]n4)cc3)C2)cc1
5.64

====

Reported pIC50 values for a set of compounds
SYSTEM UNDER TEST: human ACC2 (Homo sapiens)
Construct: made in house; host or cells: insect cells (baculoviral expression system)
ASSAY NOTES: ACC2 assay, spectrophotometric 384 well assay (NADH-linked, coupled lactate dehydrogenase/pyruvate kinase)
Format: biochemical
EXPERIMENTAL PARAMETERS: ACC2 assay; human ACC2 construct lacking 128 N-terminal amino acids; 25° C., 340 nm, 15 minutes; read-out: IC50
pIC50 field: float, defined as -log10 of concentration (mol/L).

# count of solved cases: 3
CCOc1ccc(OC2CN(c3ccc([C@H](C)NC(=O)CCC#N)cc3)C2)cc1: 5.97
CCOc1ccc(OC2CN(c3ccc([C@H](C)NC(=O)c4ccncc4)cc3)C2)cc1: 5.91
C[C@H](NC(=O)C1CC1)c1ccc(N2CC(Oc3ccc4c(c3)OCO4)C2)cc1: 5.68

Next compound, please.
Record request: pIC50 value, item CCOc1ccc(OC2CN(c3ccc([C@H](C)NC(=O)CO)cc3)C2)cc1
6.00

====

Reported pIC50 values for a set of molecules
SYSTEM UNDER TEST: human ACC2 (Homo sapiens)
Construct: made in house; host or cells: insect cells (baculoviral expression system)
ASSAY NOTES: ACC2 assay, spectrophotometric 384 well assay (NADH-linked, coupled lactate dehydrogenase/pyruvate kinase)
Assay type: biochemical
EXPERIMENTAL PARAMETERS: ACC2 assay; human ACC2 construct lacking 128 N-terminal amino acids; 25° C., 340 nm, 15 minutes; read-out: IC50
pIC50 field: float, defined as -log10 of concentration (mol/L).

CCOc1ccc(OC2CN(c3ccc([C@H](C)NC(=O)c4cncn4C)cc3)C2)cc1: 5.69
CCOc1ccc(OC2CN(c3ccc([C@H](C)NC(=O)C(F)(F)F)cc3)C2)cc1: 7.22
CCNC(=O)N[C@@H](C)c1ccc(N2CC(Oc3ccc(OCC4CC4)cc3)C2)cc1: 6.55

Record request: pIC50 value, item CC(=O)N[C@@H](C)c1ccc(N2CC(Oc3ccc(OC(C)C)cc3)C2)cc1
7.15

Record request: pIC50 value, item CCOc1ccc(OC2CN(c3ccc([C@H](C)NC(=O)c4ccc(C)c(NC(C)=O)c4)cc3)C2)cc1
5.50

====

Reported pIC50 values for a set of molecules
SYSTEM UNDER TEST: human ACC2 (Homo sapiens)
Construct: made in house; host or cells: insect cells (baculoviral expression system)
ASSAY NOTES: ACC2 assay, spectrophotometric 384 well assay (NADH-linked, coupled lactate dehydrogenase/pyruvate kinase)
Format: biochemical
EXPERIMENTAL PARAMETERS: ACC2 assay; human ACC2 construct lacking 128 N-terminal amino acids; 25° C., 340 nm, 15 minutes; read-out: IC50
pIC50 field: float, defined as -log10 of concentration (mol/L).

# count of solved cases: 3
CCc1cccc(OC2CN(c3ccc([C@H](C)NC(C)=O)cc3)C2)n1: 6.48
CC(=O)N[C@@H](C)c1ccc(N2CC(Oc3cc(C(F)(F)F)ccc3F)C2)cc1: 6.96
C[C@H](NC(=O)C1CC1)c1ccc(N2CC(Oc3ccc(OCC4CC4)cc3)C2)cc1: 7.15

Value wanted: pIC50 (human ACC2 (Homo sapiens)) of entry CCOc1ccc(OC2CN(c3ccc([C@H](C)NC(=O)C(C)CC)cc3)C2)cc1 (some centres unmarked)
6.15

Value wanted: pIC50 (human ACC2 (Homo sapiens)) of entry CCOc1ccc(OC2CN(c3ccc([C@H](C)NC(=O)c4cn[nH]c4)cc3)C2)cc1
6.68

Value wanted: pIC50 (human ACC2 (Homo sapiens)) of entry CCOc1ccc(OC2CN(c3ccc([C@H](C)NC(=O)c4nc(C)sc4C)cc3)C2)cc1
5.97

Value wanted: pIC50 (human ACC2 (Homo sapiens)) of entry CCOc1ccc(OC2CN(c3ccc([C@H](C)NC(=O)c4ccon4)cc3)C2)cc1
5.79

Value wanted: pIC50 (human ACC2 (Homo sapiens)) of entry CCOc1ccc(OC2CN(c3ccc([C@H](C)NC(=O)C4CC(F)C4)cc3)C2)cc1 (some centres unmarked)
6.66

====

SYSTEM UNDER TEST: human ACC2 (Homo sapiens)
Construct: made in house; host or cells: insect cells (baculoviral expression system)
ASSAY NOTES: ACC2 assay, spectrophotometric 384 well assay (NADH-linked, coupled lactate dehydrogenase/pyruvate kinase)
Format: biochemical
EXPERIMENTAL PARAMETERS: ACC2 assay; human ACC2 construct lacking 128 N-terminal amino acids; 25° C., 340 nm, 15 minutes; read-out: IC50
pIC50: −log10 of the molar value.
Record Met whenever pIC50 is at 6 or higher; record Not met when lower.

CCOc1ccc(OC2CN(c3ccc([C@H](C)NC(=O)c4cocn4)cc3)C2)cc1: Met
CC(=O)N[C@@H](C)c1ccc(N2CC(Oc3ccc(OCC4CC4(F)F)cc3)C2)cc1 (stereo partly shown): Met
CCOc1ccc(OC2CN(c3ccc([C@H](C)NC(=O)c4cncc(NC(C)=O)c4)cc3)C2)cc1: Met
CC(=O)N[C@@H](C)c1ccc(N2CC(Oc3ccnc(N4CCCC4)n3)C2)cc1: Met
CCOc1ccc(OC2CN(c3ccc([C@H](C)NC(=O)c4cn[nH]c4)cc3)C2)c(F)c1: Not met
CCOCC(=O)N[C@@H](C)c1ccc(N2CC(Oc3ccc(OCC)cc3)C2)cc1: Not met

Attention now shifts to the item below.
Does CCOc1ccc(OC2CN(c3ccc([C@H](C)NC(=O)c4conc4C)cc3)C2)cc1 have a reported pIC50 of at least 6?
Met

====

SYSTEM UNDER TEST: human ACC2 (Homo sapiens)
Construct: made in house; host or cells: insect cells (baculoviral expression system)
ASSAY NOTES: ACC2 assay, spectrophotometric 384 well assay (NADH-linked, coupled lactate dehydrogenase/pyruvate kinase)
Format: biochemical
EXPERIMENTAL PARAMETERS: ACC2 assay; human ACC2 construct lacking 128 N-terminal amino acids; 25° C., 340 nm, 15 minutes; read-out: IC50
Protocol: Spectrophotometric 384 Well Assay Malonyl CoA formation by acetyl CoA carboxylases is stoichometrically linked to the consumption of ATP. ACC2 activity is measured in a NADH-linked kinetic method measuring ADP generated during the ACC reaction using a coupled lactate dehydrogenase/pyruvate kinase reaction. For biological testing, a human ACC2 construct which lacks the 128 amino acids at the N-terminus for increased solubility (nt 385-6966 in Genbank entry AJ575592) is cloned. […]
# note: exactly 800 nM is not below, so it is rule not met; use rule met for IC50 strictly under it

# example entries with known answers
CCOc1ccc(OC2CN(c3ccc([C@H](C)NC(C)=O)cc3)C2)cc1: rule met
CC(=O)N[C@@H](C)c1ccc(N2CC(Oc3ccc(OC(C)(C)C)cc3)C2)cc1: rule met

I'd appreciate it if you could check whether CCOc1ccc(OC2CN(c3ccc([C@H](C)NC(=O)c4coc(NC(C)=O)n4)cc3)C2)cc1 has IC50 smaller than 800 nM.
rule not met

I'd appreciate it if you could check whether CCOc1ccc(OC2CN(c3ccc([C@H](C)NC(=O)C4CC(OC)C4)cc3)C2)cc1 (some centres unmarked) has IC50 smaller than 800 nM.
rule met

I'd appreciate it if you could check whether CCOc1ccc(OC2CN(c3ccc([C@H](C)NC(=O)N(C)c4cccnc4)cc3)C2)cc1 has IC50 smaller than 800 nM.
rule met

I'd appreciate it if you could check whether CCOc1ccc(OC2CN(c3ccc([C@H](C)NC(=O)C4(O)CC4)cc3)C2)cc1 has IC50 smaller than 800 nM.
rule not met

I'd appreciate it if you could check whether CCOc1ccc(OC2CN(c3ccc([C@H](C)NC(=O)N(C)C4CC4)cc3)C2)cc1 has IC50 smaller than 800 nM.
rule not met
